Task for the reader: assign each of the following compounds its reported inhibition.
- assaySystem: Histone deacetylase 2 (Homo sapiens, UniProt Q92769)
- Sequence (Q92769 whole entry): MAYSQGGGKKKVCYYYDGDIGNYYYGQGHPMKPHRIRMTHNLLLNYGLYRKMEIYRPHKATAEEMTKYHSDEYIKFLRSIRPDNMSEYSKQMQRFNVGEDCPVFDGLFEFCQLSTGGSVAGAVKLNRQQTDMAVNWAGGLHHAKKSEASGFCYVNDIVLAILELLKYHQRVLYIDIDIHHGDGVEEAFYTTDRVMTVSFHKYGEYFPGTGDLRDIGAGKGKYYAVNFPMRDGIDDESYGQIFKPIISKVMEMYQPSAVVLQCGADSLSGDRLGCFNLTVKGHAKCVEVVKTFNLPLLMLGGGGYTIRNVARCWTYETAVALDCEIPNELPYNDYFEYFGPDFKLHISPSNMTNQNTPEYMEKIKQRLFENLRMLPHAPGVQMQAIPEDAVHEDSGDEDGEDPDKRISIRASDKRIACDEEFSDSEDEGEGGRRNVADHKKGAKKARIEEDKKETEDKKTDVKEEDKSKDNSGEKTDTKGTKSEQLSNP
- experimentalDetails: Inhibition of full-length recombinant human C-terminal GST tagged HDAC2 expressed in Sf9 insect cells using aminoluciferin peptide substrate at 100 nM preincubated for 3 hrs followed by substrate addition and measured after 30 mins by HDAC-Glo I/II chemiluminescence assay
- runParameters: time 3.5 hrs
Lab book: enter the figure in %, no units written.

q: Request body: readout inhibition, system Histone deacetylase 2 (Homo sapiens, UniProt Q92769), query Nc1ccc(-c2cccs2)cc1NC(=O)c1ccc(-c2cn(CCCc3ccccc3)nn2)cc1 . Return the value.
a: 2

q: Next compound: Nc1ccc(-c2ccccc2)cc1NC(=O)CCc1cn(Cc2cc3ccccc3s2)nn1
a: 0

q: Consider next the compound Nc1ccc(-c2ccsc2)cc1NC(=O)CCc1cn(CCc2ccc(F)cc2)nn1 in the same way.
a: 21

q: Entry to check: Nc1ccc(-c2ccc(F)cc2)cc1NC(=O)CCc1cn(CCCCCCC(=O)O)nn1
a: 6

q: Same question for Nc1ccc(-c2cccs2)cc1NC(=O)c1cccc(-c2cn(CCc3ccccc3)nn2)c1 please.
a: 17

q: // next record Nc1ccc(-c2ccsc2)cc1NC(=O)CCc1cn(CCc2ccc(C(=O)O)cc2)nn1
a: 31

q: Lookup Nc1ccc(-c2ccsc2)cc1NC(=O)c1cn(CCC23CC4CC(CC(C4)C2)C3)nn1
a: 0

q: Now try Nc1ccc(-c2ccsc2)cc1NC(=O)CCc1cn(CCc2cccc([N+](=O)[O-])c2)nn1 .
a: 36

q: Next: Cc1cccc(C)c1NC(=O)Cn1cc(CCC(=O)Nc2cc(-c3ccsc3)ccc2N)nn1
a: 18
